Values were extracted from the supplement of paper PMC5998384.

Quick list: melting temperature per entry.
- System: HeLa Kyoto;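 also: HeLa Kyoto cells synchronized by double thymidine or nocodazole block, proteins quantified by TMT10plex mass spectrometry, three independent biological replicates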
- assay-remarks: melting temperature (median over replicates), in situ; higher = more thermally stable
- measurement-setup: cell cycle stage: mitosis
Answer format: numeric, °C implied, no suffix.

{"columns": ["sequence-content", "measurement-unit", "assay-value"],
 "data": [
  ["MAAALWGFFPVLLLLLLSGDVQSSEVPGAAAEGSGGSGVGIGDRFKIEGRAVVPGVKPQDWISAARVLVDGEEHVGFLKTDGSFVVHDIPSGSYVVEVVSPAYRFDPVRVDITSKGKMRARYVNYIKTSEVVRLPYPLQMKSSGPPSYFIKRESWGWTDFLMNPMVMMMVLPLLIFVLLPKVVNTSDPDMRREMEQSMNMLNSNHELPDVSEFMTRLFSSKSSGKSSSGSSKTGKSGAGKRR [EMC7]", "°C", 54.1],
  ["MSDEEARQSGGSSQAGVVTVSDVQELMRRKEEIEAQIKANYDVLESQKGIGMNEPLVDCEGYPRSDVDLYQVRTARHNIICLQNDHKAVMKQVEEALHQLHARDKEKQARDMAEAHKEAMSRKLGQSESQGPPRAFAKVNSISPGSPASIAGLQVDDEIVEFGSVNTQNFQSLHNIGSVVQHSEGKPLNVTVIRRGEKHQLRLVPTRWAGKGLLGCNIIPLQR [PSMD9]", "°C", 55.7],
  ["MSGGLLKALRSDSYVELSQYRDQHFRGDNEEQEKLLKKSCTLYVGNLSFYTTEEQIYELFSKSGDIKKIIMGLDKMKKTACGFCFVEYYSRADAENAMRYINGTRLDDRIIRTDWDAGFKEGRQYGRGRSGGQVRDEYRQDYDAGRGGYGKLAQNQ [NCBP2]", "°C", 51.8]
]}

Prompt line: # lookup: melting temperature of MTELQSALLLRRQLAELNKNPVEGFSAGLIDDNDLYRWEVLIIGPPDTLYEGGVFKAHLTFPKDYPLRPPKMKFITEIWHPNVDKNGDVCISILHEPGEDKYGYEKPEERWLPIHTVETIMISVISMLADPNGDSPANVDAAKEWREDRNGEFKRKVARCVRKSQETAFE [UBE2G1]
Response line: 53

Prompt line: # lookup: melting temperature of MEHFDASLSTYFKALLGPRDTRVKGWFLLDNYIPTFICSVIYLLIVWLGPKYMRNKQPFSCRGILVVYNLGLTLLSLYMFCELVTGVWEGKYNFFCQGTRTAGESDMKIIRVLWWYYFSKLIEFMDTFFFILRKNNHQITVLHVYHHASMLNIWWFVMNWVPCGHSYFGATLNSFIHVLMYSYYGLSSVPSMRPYLWWKKYITQGQLLQFVLTIIQTSCGVIWPCTFPLGWLYFQIGYMISLIALFTNFYIQTYNKKGASRRKDHLKDHQNGSMAAVNGHTNSFSPLENNVKPRKLRKD [ELOVL5]
Response line: 53.7

Prompt line: # lookup: melting temperature of MEEECRVLSIQSHVIRGYVGNRAATFPLQVLGFEIDAVNSVQFSNHTGYAHWKGQVLNSDELQELYEGLRLNNMNKYDYVLTGYTRDKSFLAMVVDIVQELKQQNPRLVYVCDPVLGDKWDGEGSMYVPEDLLPVYKEKVVPLADIITPNQFEAELLSGRKIHSQEEALRVMDMLHSMGPDTVVITSSDLPSPQGSNYLIVLGSQRRRNPAGSVVMERIRMDIRKVDAVFVGTGDLFAAMLLAWTHKHPNNLKVACEKTVSTLHHVLQRTIQCAKAQAGEGVRPSPMQLELRMVQSKRDIEDPEIVVQATVL [PDXK]
Response line: 56.3
